- TEST SYSTEM: Integrin alpha-4/beta-1 (Homo sapiens, UniProt P05556+P13612)
- Sequence (P05556 whole entry): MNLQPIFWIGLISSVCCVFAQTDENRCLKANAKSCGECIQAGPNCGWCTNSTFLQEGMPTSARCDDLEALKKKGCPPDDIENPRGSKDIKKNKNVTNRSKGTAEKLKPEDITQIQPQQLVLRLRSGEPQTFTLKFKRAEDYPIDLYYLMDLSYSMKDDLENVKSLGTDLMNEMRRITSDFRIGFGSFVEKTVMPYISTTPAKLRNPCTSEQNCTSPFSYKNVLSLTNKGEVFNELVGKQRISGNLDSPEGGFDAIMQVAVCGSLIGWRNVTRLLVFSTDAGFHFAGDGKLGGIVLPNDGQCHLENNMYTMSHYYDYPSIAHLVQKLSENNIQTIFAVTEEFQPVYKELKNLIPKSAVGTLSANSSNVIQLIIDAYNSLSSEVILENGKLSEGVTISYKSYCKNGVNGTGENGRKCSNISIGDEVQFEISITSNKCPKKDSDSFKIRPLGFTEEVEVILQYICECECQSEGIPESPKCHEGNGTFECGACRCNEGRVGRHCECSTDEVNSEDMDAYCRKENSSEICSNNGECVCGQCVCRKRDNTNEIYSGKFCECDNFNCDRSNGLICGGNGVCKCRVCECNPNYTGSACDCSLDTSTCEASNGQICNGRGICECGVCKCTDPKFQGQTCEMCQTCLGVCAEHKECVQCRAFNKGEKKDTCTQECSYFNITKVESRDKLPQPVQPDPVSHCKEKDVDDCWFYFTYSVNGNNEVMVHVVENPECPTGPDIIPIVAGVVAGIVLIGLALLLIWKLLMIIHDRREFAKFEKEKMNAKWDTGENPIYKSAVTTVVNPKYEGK
- Sequence (P13612 whole entry): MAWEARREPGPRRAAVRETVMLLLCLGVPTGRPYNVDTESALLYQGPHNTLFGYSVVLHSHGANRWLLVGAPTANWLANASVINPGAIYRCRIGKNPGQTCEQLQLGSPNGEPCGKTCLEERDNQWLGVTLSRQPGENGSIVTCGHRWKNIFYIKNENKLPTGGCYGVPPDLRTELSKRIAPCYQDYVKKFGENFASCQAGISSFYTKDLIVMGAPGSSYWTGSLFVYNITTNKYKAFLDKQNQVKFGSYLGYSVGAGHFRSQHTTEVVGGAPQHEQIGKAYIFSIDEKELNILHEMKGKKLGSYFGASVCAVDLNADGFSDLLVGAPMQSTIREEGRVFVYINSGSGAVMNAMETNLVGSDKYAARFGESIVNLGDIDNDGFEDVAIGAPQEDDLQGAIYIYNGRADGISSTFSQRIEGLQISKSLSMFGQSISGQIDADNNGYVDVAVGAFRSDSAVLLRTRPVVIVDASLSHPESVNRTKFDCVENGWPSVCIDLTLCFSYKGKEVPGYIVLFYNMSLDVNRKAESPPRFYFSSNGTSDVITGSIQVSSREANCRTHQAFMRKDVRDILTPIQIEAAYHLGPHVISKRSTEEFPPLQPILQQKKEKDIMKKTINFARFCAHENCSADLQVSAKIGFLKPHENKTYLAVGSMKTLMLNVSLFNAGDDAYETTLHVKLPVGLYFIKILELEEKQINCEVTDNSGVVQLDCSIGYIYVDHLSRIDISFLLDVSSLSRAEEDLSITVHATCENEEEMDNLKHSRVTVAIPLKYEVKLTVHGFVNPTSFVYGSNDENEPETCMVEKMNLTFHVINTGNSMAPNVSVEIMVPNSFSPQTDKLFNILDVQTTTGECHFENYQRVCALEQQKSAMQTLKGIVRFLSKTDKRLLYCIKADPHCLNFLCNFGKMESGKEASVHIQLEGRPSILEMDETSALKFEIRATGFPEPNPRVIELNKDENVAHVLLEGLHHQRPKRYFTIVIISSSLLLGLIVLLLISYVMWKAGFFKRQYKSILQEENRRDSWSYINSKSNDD
- TEST NAME: Antagonistic activity against VLA-4 integrin of human jurkat cells using [125I]VCAM-Ig as radioligand
- Assay type: functional, cell-based
READOUT KIND: IC50 (nM)
Reply numerically in nM, unit not repeated.

Req: Query IC50 on Integrin alpha-4/beta-1 (Homo sapiens, UniProt P05556+P13612) for N#Cc1cccc(-c2ccc(C[C@H](NC(=O)[C@@H]3CCCN3S(=O)(=O)c3cc(Cl)cc(Cl)c3)C(=O)O)cc2)c1
Resp: 0.39

Req: Query IC50 on Integrin alpha-4/beta-1 (Homo sapiens, UniProt P05556+P13612) for C[C@@]1(C(=O)N[C@@H](Cc2ccc(-c3c(O)cccc3O)cc2)C(=O)O)CCCN1S(=O)(=O)c1cc(Cl)cc(Cl)c1
Resp: 0.5

Req: Query IC50 on Integrin alpha-4/beta-1 (Homo sapiens, UniProt P05556+P13612) for COc1cccc(OC)c1-c1ccc(C[C@H](NC(=O)[C@@H]2CCCN2S(=O)(=O)c2cc(Cl)cc(Cl)c2)C(=O)O)cc1
Resp: 0.09

Req: Query IC50 on Integrin alpha-4/beta-1 (Homo sapiens, UniProt P05556+P13612) for CNC(=O)c1ccccc1-c1ccc(C[C@H](NC(=O)[C@@H]2CCCN2S(=O)(=O)c2cc(Cl)cc(Cl)c2)C(=O)O)cc1
Resp: 0.1

Req: Query IC50 on Integrin alpha-4/beta-1 (Homo sapiens, UniProt P05556+P13612) for O=Cc1ccc(-c2ccc(C[C@H](NC(=O)[C@@H]3CCCN3S(=O)(=O)c3cc(Cl)cc(Cl)c3)C(=O)O)cc2)cc1
Resp: 0.38

Req: Query IC50 on Integrin alpha-4/beta-1 (Homo sapiens, UniProt P05556+P13612) for CSc1ccccc1-c1ccc(C[C@H](NC(=O)[C@@H]2CCCN2S(=O)(=O)c2cc(Cl)cc(Cl)c2)C(=O)O)cc1
Resp: 0.36

Req: Query IC50 on Integrin alpha-4/beta-1 (Homo sapiens, UniProt P05556+P13612) for CCCC[C@H](NC(=O)[C@@H]1Cc2ccccc2CN1S(=O)(=O)c1cc(Cl)cc(Cl)c1)C(=O)O
Resp: 10

Req: Query IC50 on Integrin alpha-4/beta-1 (Homo sapiens, UniProt P05556+P13612) for CN(C)C(=O)c1ccccc1-c1ccc(C[C@H](NC(=O)[C@]2(C)CCCN2S(=O)(=O)c2cc(Cl)cc(Cl)c2)C(=O)O)cc1
Resp: 0.22

Req: Query IC50 on Integrin alpha-4/beta-1 (Homo sapiens, UniProt P05556+P13612) for COc1ccc(S(=O)(=O)N2Cc3ccccc3C[C@H]2C(=O)N[C@@H](Cc2ccc3ccccc3c2)C(=O)O)cc1OC
Resp: 7

Req: Query IC50 on Integrin alpha-4/beta-1 (Homo sapiens, UniProt P05556+P13612) for C[C@@]1(C(=O)N[C@@H](Cc2ccc(-c3ccccn3)cc2)C(=O)O)CCCN1S(=O)(=O)c1cc(Cl)cc(Cl)c1
Resp: 0.15

Req: Query IC50 on Integrin alpha-4/beta-1 (Homo sapiens, UniProt P05556+P13612) for COc1cccc(OC)c1-c1ccc(C[C@H](NC(=O)[C@]2(C)CCN2S(=O)(=O)c2cc(Cl)cc(Cl)c2)C(=O)O)cc1
Resp: 0.07

Req: Query IC50 on Integrin alpha-4/beta-1 (Homo sapiens, UniProt P05556+P13612) for Cc1ccc(-c2ccc(C[C@H](NC(=O)[C@@H]3CCCN3S(=O)(=O)c3cc(Cl)cc(Cl)c3)C(=O)O)cc2)cc1
Resp: 1.53
